biological target: purified HLA DRB1 *0101 (Homo sapiens, UniProt P01903+P01911, A100R/D57E/F55L/F60I/F76Y/I96L/L162R/M171V/P40L/Q125E/R42F/V115G/Y59C); assay: IC50nM to purified HLA | DRB1 *0101
Where no end group is shown, it is not given here.
pIC50: recorded values
// field semantics: pIC50 = negative decimal log of concentration (mol/L)

Some sequences with known pIC50 results, for comparison:
> print(dat)
                  monomer.sequence  value
1  AAAFFVAANTLKADA [SEQ ID NO: 19]   8.47
2  AAAWFVAANTLHAAA [SEQ ID NO: 10]   8.42
3  AAAFFVAAWTLHAAA [SEQ ID NO: 12]   8.44

input: Could you tell me which pIC50 is on file for AAAKFVAAWTLKAAA [SEQ ID NO: 4] ?
output: 8.48

input: May I ask what pIC50 has been recorded for AAAYFVAAWTLKAAA [SEQ ID NO: 20] ?
output: 8.57

---

biological target: purified HLA DRB4 *0101 (Homo sapiens, UniProt P01903+P13762, G164S); assay: IC50nM to purified HLA | DRB4 *0101
Sequence (P01903 26-254 limits assumed): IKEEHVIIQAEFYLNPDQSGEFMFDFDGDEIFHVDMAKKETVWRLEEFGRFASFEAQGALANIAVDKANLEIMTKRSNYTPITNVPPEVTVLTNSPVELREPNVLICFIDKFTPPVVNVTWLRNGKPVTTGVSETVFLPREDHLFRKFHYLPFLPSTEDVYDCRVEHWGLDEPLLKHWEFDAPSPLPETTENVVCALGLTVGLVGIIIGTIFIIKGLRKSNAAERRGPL
Sequence (P13762 whole entry G164S): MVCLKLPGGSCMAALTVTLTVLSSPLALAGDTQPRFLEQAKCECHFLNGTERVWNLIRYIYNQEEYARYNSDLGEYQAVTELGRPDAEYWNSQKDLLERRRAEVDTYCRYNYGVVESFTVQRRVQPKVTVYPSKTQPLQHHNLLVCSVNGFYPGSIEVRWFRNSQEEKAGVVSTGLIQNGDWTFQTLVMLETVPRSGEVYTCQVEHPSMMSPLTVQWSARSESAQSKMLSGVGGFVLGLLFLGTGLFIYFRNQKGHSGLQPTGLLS
Where no end group is shown, it is not given here.
sequences and their reported IC50
State the answer as a number, implicitly in nM.

Before answering, review these 8 worked examples.
> print(dat)
                  monomer.sequence  value
1   AAAKFVAAWTLHAAA [SEQ ID NO: 6]    209
2  AAAHFVAAYTLHAAA [SEQ ID NO: 27]    526
3   AAAKFVAAWTLKAAA [SEQ ID NO: 4]    207
4   AAAWFVAAYTLHAAA [SEQ ID NO: 8]    460
5  AAAYFVAAWTLHAAA [SEQ ID NO: 21]    279
6  AAAFFVAANTLHAAA [SEQ ID NO: 15]    876
7  AAAFFVAAWTLHAAA [SEQ ID NO: 12]    440
8   AAAWFVAAFTLHAAA [SEQ ID NO: 9]    115

Read the next record carefully.
input: // IC50 lookup, key: AAAHFVAAWTLHAAA [SEQ ID NO: 26]
output: 267

---

Molecular target: HLA DRB1 *0401 (Homo sapiens, UniProt P01903+P01911, A100K/A169T/F76Y/I96L/K127E/L162R/M171V/N62H/P40V/Q125Y/R42H/S133A/S149N/S66Y/V115G/V209L/W38E)
Test: IC50nM to purified HLA | DRB1 *0401
Procedure: Table printed on a drawing sheet, FIG. 1 (contd.) Head of the field: IC50nM to purified HLA | DRB1 *0401 First copying reader's note: Continued from an earlier sheet of FIG. 1; decimal commas as printed, analog names encode substituted residues and positions, and some values are printed in italics or bold and some SEQ ID NOs underlined without a legend on this sheet. Where the first naming reader finds the target: head: IC50nM to purified HLA | DRB1 *0401
Where no end group is shown, it is not given here.
Recorded pIC50 for the following sequences
Please report pIC50 as the negative decimal logarithm of the molar concentration, giving only the number.

Field: example entries. Status: answers known.
> print(dat)
                  monomer.sequence  value
1  AAAQFVAAWTLKAAA [SEQ ID NO: 63]   8.80
2  AAAQFVAAYTLHAAA [SEQ ID NO: 65]   8.66

input: Given AAANFVAAFTLKADA [SEQ ID NO: 57] , state its recorded pIC50.
output: 8.37

input: Which measured pIC50 value corresponds to AAANFVAAWTLKADA [SEQ ID NO: 55] ?
output: 8.26

input: Entry AAAIFVAANTLHAAA [SEQ ID NO: 72] : reported pIC50 = ?
output: 8.57

input: What does the data say about its pIC50? Entry: AAAQFVAAFTLHAAA [SEQ ID NO: 66]
output: 8.57

input: Please look up its pIC50: AAANFVAAFTLHAAA [SEQ ID NO: 53]
output: 8.80

input: Bench note: what pIC50 did AAANFVAANTLHAAA [SEQ ID NO: 54] show?
output: 8.47

input: Reported pIC50 for AAANFVAANTLKADA [SEQ ID NO: 58] : what is it?
output: 8.01

input: Please report the recorded pIC50 for AAAQFVAANTLHAAA [SEQ ID NO: 67] .
output: 8.48

input: What does the data say about its pIC50? Entry: AAANFVAAYTLKAEA [SEQ ID NO: 60]
output: 7.89

input: Request the reported pIC50 associated with AAANFVAAYTLKADA [SEQ ID NO: 56]
output: 8.20

---

Recorded pIC50 by entry
biological target: HLA DRB1 *0701 (Homo sapiens, UniProt P01903+P01911, A100R/A102G/A103Q/D57E/D86V/E43K/F76Y/K127E/L162R/M171V/P40G/Q125H/Q99D/R33Q/R42Y/R54Q/S133A/S66F/T210M/V115G/Y107V/Y59L/Y89S); experiment: IC50nM to purified HLA | DRB1 *0701
Where no end group is shown, it is not given here.
Scale: pIC50 equals -log10([C]), with [C] in mol/L.

> print(dat)
                  monomer.sequence  value
1  AAANFVAAWTLKADA [SEQ ID NO: 55]   7.28
2  AAAIFVAAYTLHAAA [SEQ ID NO: 70]   7.02

# context switch: different sequence, same pIC50
input: GET /values?readout=pIC50&item= AAANFVAANTLKAEA [SEQ ID NO: 62]
output: 6.97

---

biological target: HLA DRB1 *1101 (Homo sapiens, UniProt P01903+P01911, A100R/A169T/A87E/I96F/K41T/L162R/M171V/P40S/Q125H/Q178H/Q39Y/Q99D/R42S/S66Y/T262R/V115G/W38E); experiment: IC50nM to purified HLA | DRB1 *1101
Where no end group is shown, it is not given here.
experimental_endpoint: IC50 (nM)
The reply should contain only the number, in nM.

Sample records with IC50:
> print(dat)
                  monomer.sequence  value
1  AAAQFVAANTLHAAA [SEQ ID NO: 67]     44
2  AAANFVAAWTLKADA [SEQ ID NO: 55]     41
3  AAANFVAANTLKAEA [SEQ ID NO: 62]     78
4  AAAIFVAAFTLHAAA [SEQ ID NO: 71]     12
5  AAAQFVAAYTLHAAA [SEQ ID NO: 65]     17

input: Request the reported IC50 associated with AAAQFVAAWTLKAAA [SEQ ID NO: 63]
output: 12

input: Fill blank: measured IC50 of the sequence AAAIFVAAYTLHAAA [SEQ ID NO: 70] is ____.
output: 19

input: Need IC50, item AAANFVAAYTLKADA [SEQ ID NO: 56]
output: 100

input: Given AAANFVAAFTLKADA [SEQ ID NO: 57] , state its recorded IC50.
output: 74

---

biological target: HLA DRB1 *0301 (Homo sapiens, UniProt P01903+P01911, A100K/A102G/A103R/A169T/F55Y/I96L/K41T/L162R/M171V/P40S/Q125H/Q178H/Q39Y/R42S/S66N/T106N/T262R/W38E/Y61H); experiment: IC50nM to purified HLA | DRB1 *0301
Sequence (P01903 26-254 limits assumed, other chains not shown): as the sequence (P01903 26-254 limits assumed) above
Where no end group is shown, it is not given here.
experimental_endpoint: IC50 (nM)
Give the value in nM but do not write nM after it.

input: If you can, please state the reported IC50 value of AAAIFVAAYTLHAAA [SEQ ID NO: 70] .
output: 301

input: Given the entry AAAIFVAAFTLHAAA [SEQ ID NO: 71] , report its measured IC50.
output: 442

input: What IC50 value was documented for this sequence, AAAQFVAAWTLHAAA [SEQ ID NO: 64] ?
output: 187

input: What value of IC50 has been reported for the following sequence? AAANFVAAYTLKAEA [SEQ ID NO: 60]
output: 1070

input: Can you look up the measured IC50 of AAAIFVAAWTLKAAA [SEQ ID NO: 68] for me?
output: 393

input: Requested field: IC50. Item: AAAQFVAAWTLKAAA [SEQ ID NO: 63]
output: 271

---

biological target: purified HLA DRB1 *1302 (Homo sapiens, UniProt P01903+P01911, A100E/A169T/K41T/L162R/M171V/P40S/Q125H/Q178H/Q39Y/Q99D/R42S/S66N/T262R/V115G/W38E/Y61H); test: IC50nM to purified HLA | DRB1 *1302
Where no end group is shown, it is not given here.
# label = Yes if IC50 < 3000 nM else No

> print(dat)
                  monomer.sequence  class
1  AAAFFVAAWTLKADA [SEQ ID NO: 16]     No

input: Please let me know if AAAFFVAAFTLHAAA [SEQ ID NO: 14] shows IC50 below 3000 nM.
output: No

input: Is IC50 strictly under 3000 nM for the entry AAAFFVAANTLHAAA [SEQ ID NO: 15] ?
output: Yes

input: Criterion: IC50 strictly below 3000 nM. Is it met by AAAFFVAAYTLKADA [SEQ ID NO: 17] ?
output: Yes

input: In plain terms, does AAAWFVAANTLHAAA [SEQ ID NO: 10] come in under 3000 nM for IC50?
output: Yes

Numbers sourced from patent US9789181B2.
